- Test system: RPE-1 (normal retina pigmented epithelial)
- Protocol notes: Cytotoxicity, fluorometric cell viability assay (resazurin), RPE-1
- Type: cell-based
- Test settings: Homo sapiens; RPE-1 normal cells, 48 h incubation; read-out: IC50 (μM) RPE-1
Property name: IC50

// solved cases for IC50 follow
>>> df
                                   molecule  result_value
0  Cc1occc(=O)c1O [Maltol, 3-Hydroxy-2-methyl-4H-pyran-4-one]      > 100 µM
1        Cc1ccc(O)c(O)c1 [4-methylcatechol]      > 100 µM

From here, focus on the item given below.
I'd like to know its IC50. The molecule in question is Cc1cccc(O)c1O [3-methylcatechol] > 100 µM
